Provide the recorded protein stability index for the entries that follow.
Assay: protein stability index of a GFP-peptide fusion (GPS, HEK-293T) (PSI 1-6); higher = more stable;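 note: 24-mer peptide tiles fused after GFP, lentivirally expressed, FACS-sorted into six equal bins by GFP/DsRed ratio, decoded by Illumina sequencing, PSI is the read-weighted mean bin number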
Conditions: treatment: MLN4924 1 uM, 8 h; c terminus: native
Lab note: jot down the number only; don't add units.

Any idea what its protein stability index is? The sequence is CATTNASGNSCGPCGTSQKGCCN [KRT34] 3.66

Any idea what its protein stability index is? The sequence is SSSHQKCPQLGGPEASGGLVQWI [PLEKHN1] 3.47

Any idea what its protein stability index is? The sequence is ANDYKDTLGKGSSLSAPSKKTSR [KRT71] 5.12

Any idea what its protein stability index is? The sequence is GKSFNRHCNLIRHQKIHTVAELV [ZSCAN9] 2.05

Any idea what its protein stability index is? The sequence is AFMLFRKRLGSMILAFRPRPNYF [GDAP1] 2.12

Any idea what its protein stability index is? The sequence is KHWREWGSHAQTSQIQSIRRIQQ [CRYBA1] 3.19

Any idea what its protein stability index is? The sequence is GRKQPGVHEEPVLKKWPKLKSKK [C22orf31] 5.08

Any idea what its protein stability index is? The sequence is MNYRRLGGGVGVIKMTHCESHIW [KLHL20] 2.34

Any idea what its protein stability index is? The sequence is TEAANAARHVAPEIRELLTQFET [PWWP2B] 3.88

Any idea what its protein stability index is? The sequence is AAVLQYASLVGQKCSERMLLFRN [ATE1] 2.27

Any idea what its protein stability index is? The sequence is STICFGQGAARGFKSNKKKTKQC [ZNF511] 4.71

Any idea what its protein stability index is? The sequence is SLGPALSTGPRGLCAMPQTGDAF [VENTX] 2.3

Any idea what its protein stability index is? The sequence is SIEGTIPFSKPVKVYIMPKPARR [INTS4] 2.56
